test: Protein binding by ultra-thin coated HLB fiber SPME, slope ratio of calibrations in PBS vs 100% calf serum; details: bovine (calf), 100% calf serum, pH 7.4
Assay Readout: fraction unbound at 5 min

# Compound, Recorded Result
records = [
    ("O=C(O)Cc1ccccc1Nc1c(Cl)cccc1Cl [Diclofenac, diclofenac]", 0.02),
]

Data provenance is paper PMC5773572.
